Test system: IPOHE (Ipomoea hederacea)
Experiment: Preemergence herbicidal evaluation
Format: in vivo, (L.) Jacq.
Conditions: Rate 0.2500 kg/ha; rated 4-5 weeks after treatment
Quantity Measured: Preemergence herbicidal rating IPOHE
Answers are plain numbers.

Compound	Preemergence herbicidal rating IPOHE
Cc1ccc(-c2nsc3ccc(-n4c(=O)cc(C(F)(F)F)n(C)c4=O)cc23)nc1 [Compound 42]	4.5
C=CC1COC(c2nsc3ccc(-n4c(=O)cc(C(F)(F)F)n(C)c4=O)cc23)O1 (stereo not shown) [Compound 76]	9.0
CCCC1COC(c2nsc3ccc(-n4c(=O)cc(C(F)(F)F)n(C)c4=O)cc23)O1 (stereo not shown) [Compound 77]	7.5

Attention now shifts to the item below.
Which Preemergence herbicidal rating IPOHE value belongs to Cn1c(C(F)(F)F)cc(=O)n(-c2ccc3snc(C4OCC(CBr)O4)c3c2)c1=O (stereo not shown) [Compound 79] ? 7.0

====

Exercise: state measured CASOB herbicidal rating for each of the compounds provided.
Test system: CASOB (Cassia obtusifolia)
Test: Postemergence herbicidal evaluation
Type: in vivo, L.
Conditions: postemergence, rate 0.0320 kg/ha
Answers are plain numbers.

Examples with their reported CASOB herbicidal rating follow.
Compound	Assayed Target	CASOB herbicidal rating
Cn1c(C(F)(F)F)cc(=O)n(-c2ccc3snc(C4OC(=O)C(C)(C)O4)c3c2)c1=O (centres unmarked)	CASOB (Cassia obtusifolia)	0.0
Cn1c(C(F)(F)F)cc(=O)n(-c2ccc3snc(C4=NCCO4)c3c2)c1=O	CASOB (Cassia obtusifolia)	2.0
C[C@@H]1C[C@H](C)OC(c2nsc3ccc(-n4c(=O)cc(C(F)(F)F)n(C)c4=O)cc23)O1 (some centres unmarked)	CASOB (Cassia obtusifolia)	2.0
Cn1c(C(F)(F)F)cc(=O)n(-c2ccc3snc(C4OCC5(CO4)CO5)c3c2)c1=O (centres unmarked)	CASOB (Cassia obtusifolia)	5.0
CC1CC(C)(C)OC(c2nsc3ccc(-n4c(=O)cc(C(F)(F)F)n(C)c4=O)cc23)O1 (centres unmarked)	CASOB (Cassia obtusifolia)	2.0

For each of the compounds below, note its CASOB herbicidal rating.
1. C[C@@H]1C[C@H](C)OC(c2nsc3cc(F)c(-n4c(=O)cc(C(F)(F)F)n(C)c4=O)cc23)O1 (some centres unmarked)
2. Cn1c(C(F)(F)F)cc(=O)n(-c2cc3c(C4OCCCO4)nsc3cc2F)c1=O
3. Cn1c(C(F)(F)F)cc(=O)n(-c2ccc3snc(C4OCC(CO)O4)c3c2)c1=O (centres unmarked)

9.0
9.0
3.0

====

System: ECHORC (Echinochloa oryzoides)
Experiment: Flooded paddy, preemergence weed control
Assay type: in vivo, Echinochloa oryzoides (Ard.) Fritsch.
Details: rate 0.0320 kg/ha, rated 3-4 weeks after treatment, 0-9 rating scale
Quantity Measured: herbicidal rating, ECHORC
Answers are plain numbers.

Examples with their reported herbicidal rating, ECHORC follow.
Compound	herbicidal rating, ECHORC
Cn1c(C(F)(F)F)cc(=O)n(-c2ccc3snc(-c4ccoc4)c3c2)c1=O [Compound 83]	6.0
Cc1cccnc1-c1nsc2cc(F)c(N3C(=O)C4=C(CCCC4)C3=O)cc12 [Compound 46]	5.0
Cn1c(C(F)(F)F)cc(=O)n(-c2ccc3snc(C4SCCN4C(=O)c4ccccc4)c3c2)c1=O (centres unmarked) [Compound 30]	4.0
Cn1c(C(F)(F)F)cc(=O)n(-c2ccc3snc(C4OCCO4)c3c2)c1=O [Compound 45]	7.3

For each of the compounds below, note its herbicidal rating, ECHORC.
1. Cn1c(C(F)(F)F)cc(=O)n(-c2ccc3snc(C4OCC(CO)O4)c3c2)c1=O (centres unmarked) [Compound 73]
2. CC(=O)N1CCSC1c1nsc2ccc(-n3c(=O)cc(C(F)(F)F)n(C)c3=O)cc12 (centres unmarked) [Compound 29]
3. Cn1c(C(F)(F)F)cc(=O)n(-c2ccc3snc(-c4nccs4)c3c2)c1=O [Compound 53]

1. 0.0
2. 7.0
3. 9.0

Which herbicidal rating, ECHORC value belongs to Cc1cc(C)nc(-c2nsc3ccc(-n4c(=O)cc(C(F)(F)F)n(C)c4=O)cc23)n1 [Compound 40] ? 2.0
